Hi there, I'd appreciate the recorded melting point for every entry that follows.

Data request: Indicate its recorded melting point; the molecule in question is `CCNC(=O)c1ccc(-n2nnc(C(=O)NC3CC3)c2COCc2ccccc2)c(OCc2ccccc2)c1`
Data returned: 132 °C

Data request: Indicate its recorded melting point; the molecule in question is `CCOc1ccc(O)c2c1C(=O)N(CSc1nnnn1-c1ccccc1)S2(=O)=O`
Data returned: 178 to 180 °C

Data request: Indicate its recorded melting point; the molecule in question is `Nc1ccc2c(c1)Sc1ccccc1N2`
Data returned: 150 to 156 °C

Data request: Indicate its recorded melting point; the molecule in question is `N#Cc1ccc(-c2ccn(-c3ccc(C#N)cc3)c2)cc1`
Data returned: 234 to 240 °C

Data request: Indicate its recorded melting point; the molecule in question is `FC(F)(F)c1nc2cnc3ccccc3c2[nH]1`
Data returned: 252 to 254 °C

====

Hi there, I'd appreciate the recorded melting point for every entry that follows.
Unit °C implied. Number only.

Data request: Indicate its recorded melting point; the compound in question is `COc1cc2c(-c3cc4c(Cl)ccnc4[nH]3)cn(CCN3CCC(CCO)CC3)c2cc1OC`
Data returned: 200

Data request: Indicate its recorded melting point; the compound in question is `Clc1ncnc2ccccc12`
Data returned: 83

Data request: Indicate its recorded melting point; the compound in question is CC(C(=O)N1c2ccccc2N(C)C(=O)c2cnc(-c3ccccc3)nc21)N1CCNCC1 (stereo not given)
Data returned: 197

====

endpoint-label: melting point

Data request: Indicate its recorded melting point; the compound in question is O=C(O)COC1c2ccccc2COc2ccc(/C=C/c3ccc4cc(F)c(F)cc4n3)cc21 (stereo not given)
Data returned: 206 to 208 °C

Data request: Indicate its recorded melting point; the compound in question is `CCOC(=O)c1cn(-c2cccc(O)c2)cn1`
Data returned: 164 to 165 °C

Data request: Indicate its recorded melting point; the compound in question is Nc1ccc(Oc2ccccc2)cc1SC(c1ccc2c(c1)OCO2)C(O)C(=O)O (stereo not given)
Data returned: 158 to 159 °C

Data request: Indicate its recorded melting point; the compound in question is `CS(=O)(=O)c1ccc(-c2cc(CCCO)nn2C2CCCCC2)cc1`
Data returned: 138 °C

Data request: Indicate its recorded melting point; the compound in question is `O=c1c2ccccc2c(-c2ccccc2)cn1CCCN1CCCCC1`
Data returned: 118 °C

====

Hi there, I'd appreciate the recorded melting point for every entry that follows.

Data request: Indicate its recorded melting point; the molecule in question is CC(=O)OCC12CCC(OC(C)=O)CC1CCC1C2CCC2(C)C(OC(=O)C(C)(C)C)CCC12O (centres undefined)
Data returned: 155 to 156 °C

Data request: Indicate its recorded melting point; the molecule in question is `O=C(O)c1cc(-n2c(-c3cccc(C(F)(F)F)c3)cc3c2CCCC3)ccc1O`
Data returned: 215 to 225 °C

Data request: Indicate its recorded melting point; the molecule in question is C=CC1CCC2C3CCC4=CC(O)C=CC4(C)C3CCC12C (centres undefined)
Data returned: 98 to 128 °C

Data request: Indicate its recorded melting point; the molecule in question is COc1ccc(C(=O)O)cc1OC1C=CCC1 (centres undefined)
Data returned: 160 to 163 °C

Data request: Indicate its recorded melting point; the molecule in question is COc1ccc(Br)cc1CC1CCCn2c1nc(-c1ccncn1)cc2=O (racemic)
Data returned: 178 to 180 °C

Data request: Indicate its recorded melting point; the molecule in question is `FC(F)(F)Oc1ccc(Nc2cc(N3CCCC3)cc(-c3ccccc3)n2)cc1`
Data returned: 141 to 143 °C

Data request: Indicate its recorded melting point; the molecule in question is `Cc1ccc(S(=O)(=O)NC(=O)OCCc2ccc(-n3c(CCCc4ccccc4)nc4c(C)nc(C)cc43)cc2)cc1`
Data returned: 175 °C

Data request: Indicate its recorded melting point; the molecule in question is CCCS(=O)c1sc(C(N)=O)c2c1-c1c(cnn1CC(F)(F)F)CC2 (centres undefined)
Data returned: 165 to 166 °C

Data request: Indicate its recorded melting point; the molecule in question is `CCOC(=O)c1c(C(C)(C)C)oc(-c2ccccc2)c1-c1ccc(F)cc1`
Data returned: 93 to 94 °C

Values were extracted from a melting point compilation (Tetko et al.; mined from patent text by program, amines drawn as free bases though some values may be those of a salt).
